- Test system: NCI-H226 lung
- experiment.description: NCI-60 one-dose screen, 48 h
- cond: 10 µM unless noted
About 83,000 compounds went through this panel and 20% of them were active in at least one assay; those are over-represented in the sample as a whole. Active and inactive are the calls of the source. The calls were made as follows: active = growth percent below 10; inactive = the rest.
Outcomes: active, inactive

• C=C1C(=O)O[C@H]2[C@H]1CC/C(COC(=O)NCC(=O)Nc1ccc(OC)c(C(N)=O)c1O)=C\CC[C@@]1(C)O[C@@H]21 = inactive
• O=C1C(=O)c2c(nc3ccc(C(F)(F)F)cn23)-c2ccccc21 = active
• CC1(c2ccccc2Cl)NC(=O)NC1=O (centres undefined) = inactive
• C=C(C)[C@@H]1CC[C@]2(C(=O)O)CC[C@]3(C)[C@H](CC[C@@H]4[C@@]5(C)C[C@@H](CC#Cc6ccccc6)C(=O)C(C)(C)[C@@H]5CC[C@]43C)[C@@H]12 = inactive

----------
Entries and their measured growth follow.
- System: MOLT-4 leukemia
- experiment.description: NCI-60 one-dose screen, 48 h (100 = growth as untreated, 0 = no growth, -100 = all killed)
- cond: 10 µM unless noted
This is part of a sample that, as a whole, favours compounds with a hit. Of some 83,000 tested, about 20% had one in any assay.
property.name: growth (%)

- CCCn1c2cc(OCc3cn(-c4ccc(Cl)cc4)nn3)ccc2c2ccnc(C)c21: 57.1
- O=C1CCC23OC(c4ccccc4N12)C(O)C(O)C3O (stereo unspecified): 98.3
- Cc1ccc(C2CC(c3ccc(Nc4nc(NCCO)nc(NCCO)n4)cc3)=NN2c2ccc(Cl)cc2)cc1 (stereo unspecified): 32.3
- COc1cc(F)c(-c2nc3c(C)cccc3n2Cc2c(F)cccc2F)c(F)c1: 60.6
- CCOc1ccc(C2N(c3cc(OC)c(OC)c(OC)c3)C(=O)C2(F)F)cc1 (stereo unspecified): 18.1
- Nc1cc(N)nc(SCC(=O)O)n1: 103
- CCOC(=O)c1ccc(Nc2ncnc3ccc(NC(=O)c4ccccc4)cc23)cc1: 63.8
- c1ccc(-c2n(Cc3ccc4ccccc4n3)cc[n+]2Cc2ccc3ccccc3c2)cc1: 2.42
- COc1ccc(NC(=O)c2sc3nc(C)c(C(C)=O)cc3c2N)cc1: 84.9
- O=C(CCCC(=O)Nc1ccc(-n2nnc3cc(Cl)c(Cl)cc32)cc1)Nc1ccc(-n2nnc3cc(Cl)c(Cl)cc32)cc1: 91.1
- Cc1cccc(C)c1Nc1nnc(-c2ccc(F)cc2)o1: 110

----------
- Test system: OVCAR-5 ovarian
- experiment.description: NCI-60 one-dose screen, 48 h (100 = growth as untreated, 0 = no growth, -100 = all killed)
- cond: 10 µM unless noted
Compounds without any hit were thinned out: in the full panel of roughly 83,000, 20% have a hit.
property.name: growth (%)

- CCOC(=O)c1c(C)nc2c(c1N)/C(=C/c1ccccn1)C(=O)N2Cc1ccccc1: 64.1
- COc1ccc2nc3nc4ccc[nH]c4cc3c2c1: 115
- CC(=O)ON1CCCC(P(=O)(OCOC(=O)C(C)(C)C)OCOC(=O)C(C)(C)C)C1=O (centres undefined): 17.7
- O=C1[C@@H](OS(=O)(=O)CC(F)(F)F)[C@H](c2ccc(F)cn2)N1c1cc2c3ccccc3ccc2c2ccccc12: 104
- Cc1cccc(C)c1NCc1nnc(-c2ccco2)o1: 99.8
- Nc1ccc(C2=NN(C(=O)c3cc(-c4ccc(Cl)cc4)nc4ccccc34)C(c3ccccc3)C2)cc1 (centres undefined): 73.4
- O=C1NCc2ccc3c(-c4cccc(Cl)c4)c[nH]c3c21: 39.7
- COc1ccc(C(=O)c2cc(OC)c(OC)c(OC)c2)cc1OC(=O)C(Cl)(Cl)Cl: 63.8
- CCCCn1c(=O)c(/C=C/C(=O)/C=C/c2ccc(OC)cc2)cc2cc(Cl)ccc21: 94.9
- CCOC(=O)NC(Cc1ccccc1)c1ccccc1 (centres undefined): 106
- C=CCn1c(SCC(=O)Nc2ccc(C(=O)/C=C/c3cc(OC)c(OC)c(OC)c3)cc2)nnc1-c1ccccc1: 128
- Nc1c(C(=O)Nc2ccccc2Cl)sc2nc3c(cc12)CN(Cc1ccccc1)CC3: 95.5
- O=c1[nH]c2ccccc2cc1-c1nc2ccc(Cl)cc2[nH]1: 100
- [2H]c1nc(Nc2ncc3cc(C(=O)N(C)C)n(C4CCCC4)c3n2)c([2H])c([2H])c1N1C([2H])([2H])C([2H])([2H])NC([2H])([2H])C1([2H])[2H]: 40.3
- COc1ccc(C2=NN(c3ccc(S(N)(=O)=O)cc3)C(c3ccc(Cl)cc3)C2)c(O)c1 (centres undefined): 78.3
- COc1ccc(-c2nc(C#N)c(NCC(c3ccco3)N3CCCC3)o2)cc1 (centres undefined): 69
- CCCS(=O)(=O)Nc1ccc(F)c(C(=O)c2c[nH]c3ncc(-c4ccc(OCCCC5CCCCN5)nc4)cc23)c1F (centres undefined): 78.1
- CCOC(=O)c1c(C)nc2c(c1N)/C(=C/c1ccc[nH]1)C(=O)N2Cc1ccc(C(F)(F)F)cc1: 74.5
- CCOC(=O)c1c(C)nc2c(c1N)/C(=C/c1cccs1)C(=O)N2c1ccc(OC)cc1: 102
